# assay method text: inhibitors of HIV fusion peptide binding, primary screen, biochemical, uHTS, fluorescence dequenching (AID 1986)
# test conditions: cell-free peptide binding, 30 min, measured here: repeat confirmation average inhibition, at 18.6 µM, stronger effect = higher value
Among all 290,000 compounds or so, about 890 (0.31%) were called active. This excerpt belongs to a sample that is enriched for actives.
Where inhibition equals or exceeds 50%, the correct label is met; where it does not, the label is not met.

INSERT INTO measurements (line_notation, classification) VALUES
  ('CCCNc1c(F)c(F)c2c(C)c3ccccc3nc2c1F', 'met'),
  ('COCCCn1c(=O)/c(=C\c2ccccc2OC(F)F)s/c1=C(/C#N)C(=O)NC(C)C', 'not met'),
  ('CCCCCCc1cc2cc(-c3nnc(-c4ccccc4O)o3)c(=O)oc2cc1O', 'not met'),
  ('CCCCCCc1cc2cc(-c3nnc(-c4ccccc4OC)o3)c(=O)oc2cc1O', 'not met'),
  ('COCCCn1c(=O)/c(=C\c2cccc(OC)c2OC)s/c1=C(/C#N)C(=O)Nc1ccc(C(=O)O)cc1', 'not met');

Is inhibition at least 50%? Consider Oc1sc(C=Nc2ccc(F)cc2)c2ccccc12
not met

###

# assay method text: inhibitors of HIV fusion peptide binding, primary screen, biochemical, uHTS, fluorescence dequenching (AID 1986)
# test conditions: cell-free peptide binding, 30 min, at 20 µM, stronger effect = higher value
The whole screen tested about 290,000 compounds, of which about 890 (0.31%) were called active. This is one part of a sample in which actives are shown more often than they occur.
assay endpoint: inhibition (%)
# value in %; strip the unit string

INSERT INTO results (molecule, assay_endpoint, numeric_readout) VALUES
  ('COc1cc(/C=C2/C(=N)N3C(=NC2=O)SN=C3S(C)(=O)=O)ccc1OS(=O)(=O)c1ccc(C)cc1', 'inhibition', 72.4);

Look up inhibition for this molecule: N/C(CC(=O)NC1CCCCC1)=N\OCC(=O)Nc1ccc(Cl)c(Cl)c1
1.7

What inhibition value was documented for this molecule, COc1ccc(CC(=O)Nc2c3c(nn2-c2cccc(Cl)c2)CS(=O)(=O)C3)cc1 ?
-2

Item COc1cc(/C=C2\C(=N)N3N=CSC3=NC2=O)ccc1OS(=O)(=O)c1ccccc1 has what recorded inhibition?
10

For COc1cc(/C=C2/C(=N)N3C(=NC2=O)SN=C3S(=O)(=O)C(C)C)ccc1OS(=O)(=O)c1ccccc1 , what is its reported inhibition?
71.6

What value of inhibition has been recorded for this entry: COc1cc(/C=C2\C(=N)N3N=C(S(C)(=O)=O)SC3=NC2=O)ccc1OS(=O)(=O)c1ccc(C)cc1
76.5

Suppose we examine the molecule CCOc1ccc(N(C(=O)c2snc(C(N)=O)c2N)C(CC)C(=O)NC2CCCC2)cc1 (centres undefined) ; what inhibition value has been reported?
1.8

Item COC(=O)/C(N=Nc1c(C)n(C)n(-c2ccccc2)c1=O)=C(\C)O has what recorded inhibition?
2.8

Entry under review: CCC1=NN2C(=N)/C(=C/c3ccc(OS(=O)(=O)c4ccc(C)cc4)c(OC)c3)C(=O)N=C2S1 . Reported inhibition?
46.6

###

# assay method text: inhibitors of HIV fusion peptide binding, primary screen, biochemical, uHTS, fluorescence dequenching (AID 1986)
# test conditions: cell-free peptide binding, 30 min, at 20 µM, stronger effect = higher value
The whole screen tested about 290,000 compounds, of which about 890 (0.31%) were called active. This excerpt belongs to a sample that is enriched for actives.
Classification field: enter true (1) for inhibition values not below 30%, false (0) for values below it.

// known answers, use as guide
INSERT INTO measurements (line_notation, classification) VALUES
  ('Nc1c(C(=O)N/N=C/c2cccnc2)oc2nc(-c3ccccc3)cc(-c3ccco3)c12', 'true (1)'),
  ('Nc1c(C(=O)N/N=C/c2cccnc2)oc2nc(-c3ccco3)cc(-c3ccco3)c12', 'true (1)'),
  ('Cc1ccc(-c2cc(-c3ccco3)c3c(N)c(C(=O)NN)oc3n2)cc1', 'true (1)'),
  ('O=C(Cn1c(=O)oc2cc(S(=O)(=O)N3CCCC3)ccc21)N1CCN(C2CCCCC2)CC1', 'false (0)'),
  ('COc1cccc(/C=N/NC(=O)c2oc3nc(-c4ccccc4)cc(-c4ccco4)c3c2N)c1', 'true (1)');

Reported inhibition at or above 30%? CN(C)/C=C(/C(=O)c1ccc(Cl)c(Cl)c1)S(C)(=O)=O
false (0)

Check this compound for inhibition at or above 30%: COC(=O)[C@H](Cc1ccccc1)NC(=O)N1Cc2ccccc2C[C@H]1C(=O)OC
false (0)

Please check the record Nc1c(C(=O)N/N=C/c2ccccc2Cl)oc2nc(-c3ccccc3)cc(-c3ccco3)c12 and state if its inhibition is at or above 30%.
true (1)

Check the entry CCC1(CC)Cc2ccccc2C(=C(C#N)C#N)N1 : does inhibition equal or exceed 30%?
false (0)

Given the entry Nc1c(C(=O)N/N=C/c2ccc(F)cc2)oc2nc(-c3ccccc3)cc(-c3ccco3)c12 , answer whether its inhibition meets or surpasses 30%.
true (1)

###

Listed next: entries and their corresponding inhibition.
# assay method text: inhibitors of HIV fusion peptide binding, primary screen, biochemical, uHTS, fluorescence dequenching (AID 1986)
# test conditions: cell-free peptide binding, 30 min, at 20 µM, stronger effect = higher value
In all, about 290,000 compounds went through this assay and about 890 (0.31%) were called active. This is one part of a sample in which actives are shown more often than they occur.
Give the number; % is assumed, so skip it.

Recorded results for 10 compounds are shown here.
INSERT INTO measurements (compound, assay_endpoint, numeric_readout) VALUES
  ('O=C1N/C(=N/NC(=O)c2cccc3ccccc23)S/C1=C\c1ccccc1OCc1ccccc1', 'inhibition', 80.3),
  ('CC1c2ccsc2CCN1S(=O)(=O)c1cccs1 (stereo unspecified)', 'inhibition', -1),
  ('C=Cn1cc[n+](CC(=O)c2ccc(OC)cc2)c1', 'inhibition', -0.9),
  ('Cc1ccc(/C(N)=N/OC(=O)c2cccc(Cn3cc(C(F)(F)F)ccc3=O)c2)cc1', 'inhibition', -0.3),
  ('CCN1/C(=C\C=C(C(C)=O)C(C)=O)Sc2ccccc21', 'inhibition', 148),
  ('S=C(Nc1ccc(Oc2ccccc2)cc1)N1CCOCC1', 'inhibition', -0.2),
  ('CCOC(=O)/C(=C\C=C1/Sc2ccccc2N1CC)C(C)=O', 'inhibition', 150),
  ('COc1ccc(NS(=O)(=O)c2cccc(NC(=O)NC3CCCCC3)c2)cc1', 'inhibition', 2),
  ('O=C(O)/C=C\C(=O)Nc1ccccc1C(=O)NCc1ccccc1', 'inhibition', -0.8),
  ('Cc1sccc1C1C(C#N)=C(N)SC(N)=C1C#N', 'inhibition', 32.9);

// next entry
Query: inhibition; subject: CCOC(=O)N/N=C/c1ccc(OCCSc2ccc(Cl)cc2)c(OC)c1
6.5

###

# assay method text: inhibitors of HIV fusion peptide binding, primary screen, biochemical, uHTS, fluorescence dequenching (AID 1986)
# test conditions: cell-free peptide binding, 30 min, at 20 µM, stronger effect = higher value
Hit rate of the full screen: of about 290,000 compounds, about 890 (0.31%) were called active. The full list was thinned out, with actives kept by preference.
assay endpoint: inhibition (%)
# unit: % | format: bare number

INSERT INTO results (compound, numeric_readout) VALUES
  ('CC1=CC(=C(C#N)C#N)c2ccccc2N1C', 146),
  ('O=C(Nc1ccc([N+](=O)[O-])cc1)N1CCCCCC1', -1.7),
  ('O=C(/C=C/c1ccco1)Nc1cccc(NC(=O)/C=C/c2ccco2)n1', 93.3),
  ('COC(=O)Cc1cccc2c(=O)c3ccccc3oc12', -2),
  ('CC(=O)Nc1ccc(S(=O)(=O)Nc2nc3ccccc3nc2Nc2ccc(S(N)(=O)=O)cc2)cc1', 37.9);

Returns the measured inhibition for the input compound. Input: COC(=O)c1cc2c(C)c(C)c3ccccn3c-2c1C(=O)OC
-1.6

Which value of inhibition has been reported for Cc1c(C(=O)N(C)Cc2ccccc2)oc2c(Cl)cccc12 in the records?
-0.6

What measured inhibition goes with Cc1ccc2nc(N/C(=N/S(=O)(=O)c3cccs3)c3ccccc3Cl)sc2c1 ?
69.2

Which value of inhibition has been reported for CC(C)n1cc(C(=O)c2ccccc2O)cc(C#N)c1=O in the records?
-0.9

GET /values?readout=inhibition&item= Cc1c(OCC(=O)OC(C)(C)C)ccc2c3c(c(=O)oc12)CCC3
1.6

Give its inhibition value. Item: COc1cc2[nH]c(=O)n(CCCCCC(=O)NCCc3c[nH]c4ccccc34)c(=O)c2cc1OC
2.6

Can you look up the measured inhibition of O=C(CN1C(=O)C2CC=CCC2C1=O)NCc1cccs1 (centres undefined) for me?
-0.4

Param item = NS(=O)(=O)c1ccc(Nc2nc3ccccc3nc2NS(=O)(=O)c2cccc([N+](=O)[O-])c2)cc1 ; retrieve measured inhibition.
69.6

Query (compound): COc1cc(C(C)=O)ccc1COc1ccc(C(=O)O)cc1OC ; field requested: inhibition
2.1

Would you kindly share the measured inhibition for CN(C)c1cccc(C(=O)NNC(=S)NC2CC3CCC2C3)c1 (centres undefined) ?
-1.9

Consider the compound CC(=O)Nc1c(-c2cc(=O)oc3cc(C)ccc23)oc2ccccc12 and give its measured inhibition.
-0.7

Endpoint output: inhibition of CCOC(=O)/C(C#N)=N/Nc1ccc(S(=O)(=O)N2CCc3ccccc32)cc1 . Value?
5.4

I'd like to know its inhibition. The compound in question is COc1ccccc1N1CCN(C(=O)CCc2ccc(S(=O)(=O)NCC(C)C)cc2)CC1
0.1

Find the recorded inhibition belonging to CCOC(=O)c1c(S(=O)(=O)Nc2ccccn2)c(C)n(C)c1C and report it.
2.8

Please give the measured inhibition for this compound: CCOC(=O)C1=C(CC)OC(N)=C(C#N)C1c1ccc(OC)c(C)c1OC (centres undefined)
-1.8

Returns the measured inhibition for the input compound. Input: CCc1ccc(-c2cc3c(=O)n(CC(=O)NCCN4CCCCC4C)nc(C)n3n2)cc1 (centres undefined)
-0.3

Every entry's value here was drawn from PubChem BioAssay AID1986.
